Data provenance: the supplement of paper PMC10567573

B1: TNXB (parent)
chain: LLQRELMVPGTRHSAVLRDLRSGT

Variants of: B1
EXPERIMENTAL_PROTOCOL: protein stability index of a GFP-peptide fusion (GPS, HEK-293T) (PSI 1-6); higher = more stable;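 also: lentivirally expressed fusions sorted by FACS into six bins by GFP to DsRed ratio, PSI derived from sequencing read proportions per bin multiplied by bin number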
CONDITION_LABEL: c terminus: a fixed tail appended
protein stability index values by entry

{"VARIANT_ID": "T11C", "protein stability index": 1.56}
{"VARIANT_ID": "L17Y", "protein stability index": 2.45}
{"VARIANT_ID": "L2D", "protein stability index": 3.23}
{"VARIANT_ID": "D19L", "protein stability index": 1.75}
{"VARIANT_ID": "E5K", "protein stability index": 2.6}
{"VARIANT_ID": "T24Q", "protein stability index": 2.49}
{"VARIANT_ID": "V8F", "protein stability index": 2.28}
{"VARIANT_ID": "E5N", "protein stability index": 2.85}
{"VARIANT_ID": "G10F", "protein stability index": 2.33}
{"VARIANT_ID": "L6P", "protein stability index": 3.15}
{"VARIANT_ID": "R18Q", "protein stability index": 2.48}
{"VARIANT_ID": "L17T", "protein stability index": 2.73}
{"VARIANT_ID": "V8G", "protein stability index": 2.27}
{"VARIANT_ID": "L1H", "protein stability index": 2.98}
{"VARIANT_ID": "P9T", "protein stability index": 2.03}
{"VARIANT_ID": "V16T", "protein stability index": 2.7}
{"VARIANT_ID": "L20A", "protein stability index": 2.97}
{"VARIANT_ID": "R4A", "protein stability index": 2.19}
{"VARIANT_ID": "G10S", "protein stability index": 3.01}
{"VARIANT_ID": "V16Q", "protein stability index": 2.68}
{"VARIANT_ID": "G10Q", "protein stability index": 2.41}
{"VARIANT_ID": "M7N", "protein stability index": 2.57}
